experiment: Thermodynamic solubility of the compound in DPBS buffer at pH 7.4 after 72 hrs by UV spectrometric analysis
Type: physicochemical
study_conditions: read-out: Therm_solubility
readout_type: solubility thermodynamic at 72 h (µM)
Give bare numbers, in µM.

mol	uom	solubility thermodynamic at 72 h
O=C(NO)c1sc2ccccc2c1S(=O)(=O)c1ccccc1	µM	3350

[Q] # solubility thermodynamic at 72 h lookup, item O=C(/C=C/c1ccc(C(F)(F)F)cc1)NO
[A] 648

* * *

experiment: Half life in mouse plasma at 1 to 24 hrs by LC-MS/MS analysis
Type: ADME, cell-free
readout_type: half-life (h)
Give bare numbers, in h.

[Q] Reported half-life for O=C(/C=C/c1ccc(C(F)(F)F)cc1)NO : what is it?
[A] 23.2
